# TARGET_UNDER_TEST: hERG (Homo sapiens, UniProt Q12809)
# Construct: expressed in transfected cells; host or cells: CHO cells
# Sequence (Q12809 whole entry): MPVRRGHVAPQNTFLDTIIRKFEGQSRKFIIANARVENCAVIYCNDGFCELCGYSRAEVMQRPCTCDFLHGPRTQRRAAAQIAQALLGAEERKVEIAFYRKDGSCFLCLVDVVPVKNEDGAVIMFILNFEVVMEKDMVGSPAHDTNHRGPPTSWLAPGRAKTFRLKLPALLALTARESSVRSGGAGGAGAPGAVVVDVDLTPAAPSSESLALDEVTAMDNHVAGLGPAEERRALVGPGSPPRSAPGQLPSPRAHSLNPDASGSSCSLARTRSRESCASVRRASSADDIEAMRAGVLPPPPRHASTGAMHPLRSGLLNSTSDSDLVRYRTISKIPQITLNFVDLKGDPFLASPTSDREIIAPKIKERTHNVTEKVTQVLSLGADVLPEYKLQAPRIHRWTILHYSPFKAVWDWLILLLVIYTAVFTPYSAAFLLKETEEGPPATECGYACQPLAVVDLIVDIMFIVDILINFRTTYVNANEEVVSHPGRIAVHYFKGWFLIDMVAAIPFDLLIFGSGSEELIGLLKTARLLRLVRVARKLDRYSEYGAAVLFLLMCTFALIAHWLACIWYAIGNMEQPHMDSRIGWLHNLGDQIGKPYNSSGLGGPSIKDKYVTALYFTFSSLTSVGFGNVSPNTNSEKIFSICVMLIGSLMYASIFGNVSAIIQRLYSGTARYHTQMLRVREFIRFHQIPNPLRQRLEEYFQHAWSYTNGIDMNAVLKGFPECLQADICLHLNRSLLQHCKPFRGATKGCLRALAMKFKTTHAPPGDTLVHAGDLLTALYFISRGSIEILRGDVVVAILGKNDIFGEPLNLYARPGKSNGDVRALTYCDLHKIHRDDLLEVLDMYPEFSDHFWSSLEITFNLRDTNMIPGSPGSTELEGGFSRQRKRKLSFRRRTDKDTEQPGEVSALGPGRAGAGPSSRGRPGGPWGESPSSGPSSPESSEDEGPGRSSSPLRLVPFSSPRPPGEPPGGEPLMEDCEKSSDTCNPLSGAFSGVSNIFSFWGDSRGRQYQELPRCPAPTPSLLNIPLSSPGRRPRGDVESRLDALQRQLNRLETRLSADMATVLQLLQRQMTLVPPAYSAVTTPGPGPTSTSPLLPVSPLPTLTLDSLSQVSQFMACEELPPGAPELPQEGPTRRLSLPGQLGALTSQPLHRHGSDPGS
# ASSAY_OVERVIEW: electrophysiology-based hERG assay using IonWorks HT (CHO cells)
# Format: cell-based
# TEST_CONDITIONS: human, CHO cells that express hERG; relative to Pf potency; read-out: selectivity against hERG
QUANTITY_MEASURED: selectivity ratio

Tested system hERG (Homo sapiens, UniProt Q12809); selectivity ratio recorded for Cc1nc(Nc2ncc(N3CCN(C)[C@H](C)C3)c(Nc3cc(C)n(C)n3)n2)cc(C2CC2)c1F [compound 12] was > 1000
